Source listed as the supplement of paper PMC10724198.

# System: Saccharomyces cerevisiae
# Experiment description: protein stability index of tFT-peptide fusion (C-terminal peptide) (PSI (0-1 scale)); higher = more stable (slower turnover)
# Measurement conditions: genetic background: das1 deletion; temperature: 30 C
Label false if protein stability index falls below 0.5; label true in every other case.

Answered examples (8):
>>> discrete_label("LIARYTFLFCLC")
"true"
>>> discrete_label("LLVLRQYFFFFV")
"false"
>>> discrete_label("HPPPTLVPPHPR")
"true"
>>> discrete_label("WLLVVCRGLVFR")
"false"
>>> discrete_label("AGCFFVVLCGFF")
"false"
>>> discrete_label("SVAGFFLLLLLS")
"false"
>>> discrete_label("MALAVRVVFCGA")
"false"
>>> discrete_label("FLWLCLLSLFFR")
"false"

[in] Is protein stability index for `FFGRWWWSFLLA` at or above 0.5?
[out] true

[in] # check: protein stability index of `LSRSAGVGVWVG` is greater than or equal to 0.5
[out] true

[in] Could you please find out whether `RHAHPLTAQLPL` has protein stability index that meets 0.5 or exceeds it?
[out] true

----------
# Test system: Saccharomyces cerevisiae
# Experiment description: protein stability index of tFT-peptide fusion (C-terminal peptide) (PSI (0-1 scale)); higher = more stable (slower turnover)
# Measurement conditions: genetic background: wild type; temperature: 30 C
Reported metric: protein stability index
// response body must contain only the number

// known answers, use as guide
>>> observed_measurement("DEFQRLTNGIPY [STT4 C-terminal 12 aa]")
0.692
>>> observed_measurement("LKNGDKPHMLKF [RPL6A C-terminal 12 aa]")
0.72
>>> observed_measurement("IGAPASGLRIRV [COP1 C-terminal 12 aa]")
0.692
>>> observed_measurement("FSGDMSFTVYQL [POA1 C-terminal 12 aa]")
0.699
>>> observed_measurement("GPCCMYIGCGCG [YBR056C-B C-terminal 12 aa]")
0.686

Then this sequence:
[in] Return reported protein stability index; argument: NAIEEELAKMKL [THR4 C-terminal 12 aa]
[out] 0.692

----------
# System: Saccharomyces cerevisiae
# Experiment description: protein stability index of tFT-peptide fusion (C-terminal peptide) (PSI (0-1 scale)); higher = more stable (slower turnover)
# Measurement conditions: genetic background: das1 deletion; temperature: 30 C
Item-by-item account of protein stability index
Respond using a number only.

>>> observed_measurement("DDFDMMEATQLS [MUD2 C-terminal 12 aa]")
0.708

[in] Given PGLRRQHTRNFL [YMR294W-A C-terminal 12 aa] , state its recorded protein stability index.
[out] 0.697

[in] protein stability index for VGADSYAEEEEF [TUB1 C-terminal 12 aa] ?
[out] 0.687

[in] Which protein stability index is reported for this sequence? LYWDPSWITRQL [SNF8 C-terminal 12 aa]
[out] 0.716

[in] So what's the measured protein stability index for this one? PLITPSGFRSSL [YNR025C C-terminal 12 aa]
[out] 0.707

[in] For the sequence shown here, RTTGHNLKQDFN [BUD4 C-terminal 12 aa] , give the reported protein stability index.
[out] 0.696

[in] Fill blank: measured protein stability index of the sequence SMDEEFKNMDCI [SIR3 C-terminal 12 aa] is ____.
[out] 0.706

[in] // lookup protein stability index for RLGLDWQPDSVS [MTH1 C-terminal 12 aa]
[out] 0.695

[in] protein stability index for SLDGDTYFIIRS [YDL158C C-terminal 12 aa] ?
[out] 0.713

[in] Fill blank: measured protein stability index of the sequence YKELKDFIFAEK [GUK1 C-terminal 12 aa] is ____.
[out] 0.692

[in] Data request, read-out protein stability index, for DEADSSMTEASV [SNF2 C-terminal 12 aa]
[out] 0.704
